biological target: BosR tag-free (Borrelia burgdorferi B31, UniProt O51592 1-176, M1R); experiment: fluorescence anisotropy
measured_property: Kd (nM)
Give bare numbers, in nM.

List the reported Kd of each binder below.
1. FPospD (dsDNA) DNA 1: ATAATTGATATTAAAATATAATTGAT DNA 2: ATCAATTATATTTTAATATCAATTAT
2. FPospAB (dsDNA) DNA 1: TAATCTTATAATATAATTATACTT DNA 2: AAGTATAATTATATTATAAGATTA

[332, 307]
